Measured IC50 accompanies every entry in the list below.
- assayed system: recombinant human cGAS (aa147-522) (Homo sapiens)
- Construct: recombinant human cGAS (aa147-522); His6-SUMO (cleaved yes); made in house; host or cells: E. coli BL21/pLys
- protocol notes: In vitro inhibition assay of cGAS activity (ATP consumption, KinaseGlo Max)
- Format: biochemical
- test settings: Table 2, read-out: cGAS Inhibition Results IC50
property measured: IC50

{"compound": "NS(=O)(=O)OCC1CN(c2cc(-n3ccnc3)c3ccc(Cl)c(Cl)c3n2)CCO1 (stereo not shown)", "endpoint value": "< 2 µM"}
{"compound": "NS(=O)(=O)CCNc1cc(Cl)c2ccc(Cl)c(Cl)c2n1", "endpoint value": "> 30 µM"}
{"compound": "Clc1ccc2c(-n3ccnc3)cc(NCc3ccncc3)nc2c1", "endpoint value": "> 30 µM"}
{"compound": "CN(CCCO)c1cc(-c2cn[nH]c2)c2ccc(Cl)c(Cl)c2n1", "endpoint value": "< 2 µM"}
{"compound": "CN(CCNC(=O)c1ccccc1)c1cc(-n2ccnc2)c2ccc(Cl)cc2n1", "endpoint value": "2 to 30 µM"}
{"compound": "Brc1ccc2c(-n3ccnc3)cc(-c3ccncc3)nc2c1", "endpoint value": "> 30 µM"}
{"compound": "O=C(O)c1cc(-c2cc(-n3ccnc3)c3ccc(Cl)cc3n2)cs1", "endpoint value": "< 2 µM"}
{"compound": "Cc1cc(NCC(N)=O)c2ccc(Cl)c(Cl)c2n1", "endpoint value": "> 30 µM"}
{"compound": "NS(=O)(=O)CCNc1cc(-c2cn[nH]c2)c2cc(C(F)(F)F)ccc2n1", "endpoint value": "> 30 µM"}
{"compound": "O=P(O)(O)CCNc1cc(-n2ccnc2)c2ccc(Cl)c(Cl)c2n1", "endpoint value": "< 2 µM"}

* * *

Measured pIC50 accompanies every entry in the list below.
- assayed system: recombinant human cGAS (aa147-522) (Homo sapiens)
- Construct: recombinant human cGAS (aa147-522); His6-SUMO (cleaved yes); made in house; host or cells: E. coli BL21/pLys
- protocol notes: In vitro inhibition assay of cGAS activity (ATP consumption, KinaseGlo Max)
- Type: biochemical
- test settings: Table 3, read-out: cGAS Inhibition Results IC50
pIC50: −log10 of the molar value.

{"molecule": "O=C(O)CCS(=O)(=O)N[C@@H]1C[C@@H](C(=O)O)N(c2cc(-n3ccnc3)c3ccc(Cl)c(Cl)c3n2)C1 [I-512]", "pIC50": "> 5.70"}
{"molecule": "NC(=O)CNC(=O)C[C@@H]1CCCN1c1cc(-n2ccnc2)c2ccc(Cl)c(Cl)c2n1 [I-539]", "pIC50": "> 5.70"}
{"molecule": "COC(=O)C(C)COC[C@@H]1CCCN1c1cc(-n2ccnc2)c2ccc(Cl)c(Cl)c2n1 (stereo partly shown) [I-720]", "pIC50": "4.52 to 5.70"}
{"molecule": "O=C(O)[C@@H]1[C@@H]2C[C@@H]2CN1c1cc(-n2ccnc2)c2ccc(Cl)c(Cl)c2n1 [I-470]", "pIC50": "> 5.70"}

* * *

- assayed system: recombinant human cGAS (aa147-522) (Homo sapiens, UniProt Q8N884)
- Construct: recombinant human cGAS (aa147-522); His6-SUMO (cleaved yes); made in house; host or cells: E. coli BL21/pLys
- Sequence (Q8N884 147-522): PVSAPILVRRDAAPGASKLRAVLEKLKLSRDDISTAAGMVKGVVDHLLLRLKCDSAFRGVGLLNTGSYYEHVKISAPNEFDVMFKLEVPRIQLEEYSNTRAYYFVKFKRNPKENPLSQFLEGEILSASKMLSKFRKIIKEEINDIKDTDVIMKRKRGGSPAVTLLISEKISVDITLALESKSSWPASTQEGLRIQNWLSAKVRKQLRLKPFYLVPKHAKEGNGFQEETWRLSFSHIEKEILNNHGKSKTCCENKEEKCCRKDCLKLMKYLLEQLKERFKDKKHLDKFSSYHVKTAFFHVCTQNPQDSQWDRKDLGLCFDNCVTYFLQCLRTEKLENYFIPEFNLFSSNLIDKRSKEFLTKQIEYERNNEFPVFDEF
- protocol notes: In vitro inhibition assay of cGAS activity (ATP consumption, KinaseGlo Max)
- Assay type: biochemical
- test settings: Table 2, read-out: cGAS Inhibition Results IC50

{"compound": "O=C(O)C1COCCN1c1cc(-n2ccnc2)c2ccc(Cl)c(Cl)c2n1 (stereo not drawn) [I-92]", "IC50": "< 2000 nM"}
{"compound": "COc1ccc(-c2cc(-n3ccnc3)c3ccc(Cl)cc3n2)cc1C(=O)O [I-15]", "IC50": "< 2000 nM"}
{"compound": "C[C@@H](Nc1cc(-c2cn[nH]c2)c2ccc(Cl)c(Cl)c2n1)C(=O)OC(C)(C)C [I-402]", "IC50": "2000 to 30000 nM"}
{"compound": "O=C1CC(Nc2cc(-n3ccnc3)c3ccc(Cl)cc3n2)CCN1 (stereo not drawn) [I-365]", "IC50": "> 30000 nM"}
{"compound": "O=C(O)[C@@H]1C[C@@H](Oc2ccccc2)CN1c1cc(-n2ccnc2)c2ccc(Cl)c(Cl)c2n1 [I-362]", "IC50": "> 30000 nM"}
{"compound": "O=C(O)C1CCN(c2cc(-n3ccnc3)c3ccc(Cl)cc3n2)CC1 [I-127]", "IC50": "2000 to 30000 nM"}
{"compound": "O=C(NO)[C@@H]1CCCN(c2cc(-n3ccnc3)c3ccc(Cl)cc3n2)C1 [I-137]", "IC50": "2000 to 30000 nM"}
{"compound": "NS(=O)(=O)CCNc1ccc2ccc(Cl)c(Cl)c2n1 [I-296]", "IC50": "> 30000 nM"}
{"compound": "O=C(O)CCNC(=O)[C@H]1CN(c2cc(-c3cn[nH]c3)c3ccc(Cl)c(Cl)c3n2)CCO1 [I-344]", "IC50": "< 2000 nM"}
{"compound": "O=C(O)c1cc(-c2cc(-n3ccnc3)c3ccc(Cl)cc3n2)ccc1F [I-17]", "IC50": "2000 to 30000 nM"}
{"compound": "O=C(O)[C@@H]1CCCCN1c1cc(-c2cn[nH]c2)c2ccc(Cl)c(Cl)c2n1 [I-128]", "IC50": "2000 to 30000 nM"}
{"compound": "Cn1cc(S(=O)(=O)NC2CCCN(c3cc(-n4ccnc4)c4ccc(Cl)cc4n3)C2)cn1 (stereo not drawn) [I-109]", "IC50": "> 30000 nM"}
{"compound": "CN(CCC(=O)NCCC(=O)O)c1cc(-c2cn[nH]c2)c2ccc(Cl)c(Cl)c2n1 [I-320]", "IC50": "< 2000 nM"}
{"compound": "CC(C)(NC(=O)C[C@@H]1CCCN1c1cc(-n2ccnc2)c2ccc(Cl)c(Cl)c2n1)C(=O)O [I-387]", "IC50": "< 2000 nM"}
{"compound": "CS(=O)(=O)N(CCCc1cc(-c2cn[nH]c2)c2ccc(Cl)c(Cl)c2n1)CC(=O)O [I-337]", "IC50": "< 2000 nM"}
{"compound": "O=C(O)c1cc(-c2cc(-n3ccnc3)c3ccc(Cl)cc3n2)c[nH]1 [I-56]", "IC50": "2000 to 30000 nM"}
{"compound": "O=C(O)CNC(=O)[C@H]1CN(c2cc(-c3cn[nH]c3)c3ccc(Cl)c(Cl)c3n2)CCO1 [I-343]", "IC50": "2000 to 30000 nM"}
{"compound": "O=C(O)/C=C/c1cc(-c2cn[nH]c2)c2ccc(Cl)c(Cl)c2n1 [I-423]", "IC50": "< 2000 nM"}

Reference source: patent US11873291B2
